Target: human TAS1R2-P21L/TAS1R3-WT (Homo sapiens, UniProt Q7RTX0+Q8TE23, P21L)
Construct: expressed in transfected cells; host or cells: HEK293T-Gα16gust44
Assay: Calcium mobilisation assay, TAS1R2 variant P21L with TAS1R3-WT
Type: cell-based
Details: maximal signal amplitude
Text: The coding sequences for TAS1R2 and TAS1R3 were commercially synthesised, and the human codon was optimised for expression in human cells. […] The HEK293T cells were kindly provided by Jay P. Slack (Givaudan Flavors Corporation; Cincinnati, OH, USA). […] The Ca^2+ changes were expressed as fractional changes in fluorescent light intensity: ΔF/F = (F − F0)/F0, where F was the fluorescent light intensity at each point, and F0 was the value of emitted fluorescent light prior to stimulus application. […]
OBSERVED PROPERTY: Max ΔF/F0

As a guide, the following entries are already answered.
COMPOUND	RESULT NUMBER
COc1ccc(CCC(=O)c2c(O)cc(O[C@@H]3O[C@H](CO)[C@@H](O)[C@H](O)[C@H]3O[C@@H]3O[C@@H](C)[C@H](O)[C@@H](O)[C@H]3O)cc2O)cc1O [NHDC, neohesperidin dihydrochalcone]	0.81
COC(=O)[C@H](Cc1ccccc1)NC(=O)[C@H](CC(=O)O)NCCC(C)(C)C	0.53
C[C@H](CC[C@@H](O[C@@H]1O[C@H](CO[C@@H]2O[C@H](CO)[C@@H](O)[C@H](O)[C@H]2O)[C@@H](O)[C@H](O)[C@H]1O[C@@H]1O[C@H](CO)[C@@H](O)[C@H](O)[C@H]1O)C(C)(C)O)[C@H]1CC[C@@]2(C)[C@@H]3CC=C4[C@@H](CC[C@H](O[C@@H]5O[C@H](CO[C@@H]6O[C@H](CO)[C@@H](O)[C@H](O)[C@H]6O)[C@@H](O)[C@H](O)[C@H]5O)C4(C)C)[C@]3(C)[C@H](O)C[C@]12C [Mogroside V, mogroside V]	1.18
C=C1C[C@@]23CC[C@H]4[C@@](C)(CCC[C@@]4(C)C(=O)O[C@@H]4O[C@H](CO)[C@@H](O)[C@H](O[C@@H]5O[C@H](CO)[C@@H](O)[C@H](O)[C@H]5O)[C@H]4O[C@@H]4O[C@H](CO)[C@@H](O)[C@H](O)[C@H]4O)[C@@H]2CC[C@]1(O[C@@H]1O[C@H](CO)[C@@H](O)[C@H](O[C@@H]2O[C@H](CO)[C@@H](O)[C@H](O)[C@H]2O)[C@H]1O[C@@H]1O[C@H](CO)[C@@H](O)[C@H](O)[C@H]1O)C3 [Rebaudioside M, rebaudioside M]	0.99

1 = C=C(C)[C@@H]1CC=C(/C=N/O)CC1
2 = CC1=CC(=O)NS(=O)(=O)O1
Of 1 and 2 , which carries the smaller reported Max ΔF/F0 figure? Return value: the label identifying the chosen record. 2

###

Target: human TAS1R2-A574T (subunit alone) (Homo sapiens, UniProt Q8TE23, A574T)
Sequence (Q8TE23 20-839 A574T): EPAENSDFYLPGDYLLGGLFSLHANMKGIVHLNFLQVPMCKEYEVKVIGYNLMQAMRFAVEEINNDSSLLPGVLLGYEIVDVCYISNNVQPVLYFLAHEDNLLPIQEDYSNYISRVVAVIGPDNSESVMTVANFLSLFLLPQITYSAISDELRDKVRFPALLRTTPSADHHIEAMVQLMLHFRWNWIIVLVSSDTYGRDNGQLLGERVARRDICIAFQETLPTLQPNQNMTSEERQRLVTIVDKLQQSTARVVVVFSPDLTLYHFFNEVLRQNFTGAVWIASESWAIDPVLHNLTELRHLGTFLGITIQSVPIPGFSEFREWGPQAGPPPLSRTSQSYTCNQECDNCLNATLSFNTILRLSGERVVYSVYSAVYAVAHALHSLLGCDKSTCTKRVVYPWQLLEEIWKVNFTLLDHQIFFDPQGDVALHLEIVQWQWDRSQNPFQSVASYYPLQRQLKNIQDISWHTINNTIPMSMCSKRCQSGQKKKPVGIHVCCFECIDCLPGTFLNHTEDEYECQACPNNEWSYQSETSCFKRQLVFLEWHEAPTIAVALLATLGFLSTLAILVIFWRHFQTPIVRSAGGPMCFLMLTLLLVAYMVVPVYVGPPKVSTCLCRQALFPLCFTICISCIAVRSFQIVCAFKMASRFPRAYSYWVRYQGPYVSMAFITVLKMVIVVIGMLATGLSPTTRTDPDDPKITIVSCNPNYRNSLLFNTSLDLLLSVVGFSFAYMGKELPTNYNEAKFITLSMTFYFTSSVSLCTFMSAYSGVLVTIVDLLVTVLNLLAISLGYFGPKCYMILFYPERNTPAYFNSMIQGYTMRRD
Experiment: Calcium mobilisation assay, TAS1R2-A574T subunit alone
OBSERVED PROPERTY: EC50 (µM)
The answer is to be given in µM; state only the numeric part.

Return the recorded EC50 value; entry: C=C(C)[C@@H]1CC=C(/C=N/O)CC1 [Perillartine, perillartine] 85.3

###

Target: human TAS1R2-P21L (subunit alone) (Homo sapiens, UniProt Q8TE23, P21L)
Test: Calcium mobilisation assay, TAS1R2-P21L subunit alone
Experimental: The coding sequences for TAS1R2 and TAS1R3 were commercially synthesised, and the human codon was optimised for expression in human cells. […] The HEK293T cells were kindly provided by Jay P. Slack (Givaudan Flavors Corporation; Cincinnati, OH, USA). […] The fluorescence intensity was measured for 90 s (excitation 488 nm, emission 510 nm) in an automated fluorometric FlexStation®3 Multi-Mode microplate reader (Molecular Devices; San Jose, CA, USA). […]
OBSERVED PROPERTY: pEC50
Note: pEC50 values are expressed as the negative base-10 logarithm of concentration in M.

Return the recorded pEC50 value; entry: "C=C(C)[C@@H]1CC=C(/C=N/O)CC1" 3.83

###

biological target: human TAS1R2-I486V/TAS1R3-WT (Homo sapiens, UniProt Q7RTX0+Q8TE23, I486V); construct: expressed in transfected cells; host or cells: HEK293T-Gα16gust44; assay: Calcium mobilisation assay, TAS1R2 variant I486V with TAS1R3-WT; type: cell-based
OBSERVED PROPERTY: R1 = Variant EC50/WT EC50

As a guide, the following entries are already answered.
COMPOUND	R1 = Variant EC50/WT EC50
OC[C@H]1O[C@H](O[C@]2(CCl)O[C@H](CCl)[C@@H](O)[C@@H]2O)[C@H](O)[C@@H](O)[C@H]1Cl	0.6
C[C@H](CC[C@@H](O[C@@H]1O[C@H](CO[C@@H]2O[C@H](CO)[C@@H](O)[C@H](O)[C@H]2O)[C@@H](O)[C@H](O)[C@H]1O[C@@H]1O[C@H](CO)[C@@H](O)[C@H](O)[C@H]1O)C(C)(C)O)[C@H]1CC[C@@]2(C)[C@@H]3CC=C4[C@@H](CC[C@H](O[C@@H]5O[C@H](CO[C@@H]6O[C@H](CO)[C@@H](O)[C@H](O)[C@H]6O)[C@@H](O)[C@H](O)[C@H]5O)C4(C)C)[C@]3(C)[C@H](O)C[C@]12C [Mogroside V, mogroside V]	1.2
CC1=CC(=O)NS(=O)(=O)O1	1.1

1 = COC(=O)[C@H](Cc1ccccc1)NC(=O)[C@H](CC(=O)O)NCCC(C)(C)C
2 = COc1ccc(CCC(=O)c2c(O)cc(O[C@@H]3O[C@H](CO)[C@@H](O)[C@H](O)[C@H]3O[C@@H]3O[C@@H](C)[C@H](O)[C@@H](O)[C@H]3O)cc2O)cc1O [NHDC, neohesperidin dihydrochalcone]
Of 1 and 2 , which carries the smaller reported R1 = Variant EC50/WT EC50 figure? Return value: the label identifying the chosen record. 1

###

target: human TAS1R2-I234V (subunit alone) (Homo sapiens, UniProt Q8TE23, I234V); assay: Calcium mobilisation assay, TAS1R2-I234V subunit alone
OBSERVED PROPERTY: pEC50
Note: pEC50 values are expressed as the negative base-10 logarithm of concentration in M.

Return the recorded pEC50 value; entry: "C=C(C)[C@@H]1CC=C(/C=N/O)CC1" 3.51

###

Target: human TAS1R2-I486V/TAS1R3-WT (Homo sapiens, UniProt Q7RTX0+Q8TE23, I486V)
Construct: expressed in transfected cells; host or cells: HEK293T-Gα16gust44
Sequence (Q8TE23 20-839 I486V): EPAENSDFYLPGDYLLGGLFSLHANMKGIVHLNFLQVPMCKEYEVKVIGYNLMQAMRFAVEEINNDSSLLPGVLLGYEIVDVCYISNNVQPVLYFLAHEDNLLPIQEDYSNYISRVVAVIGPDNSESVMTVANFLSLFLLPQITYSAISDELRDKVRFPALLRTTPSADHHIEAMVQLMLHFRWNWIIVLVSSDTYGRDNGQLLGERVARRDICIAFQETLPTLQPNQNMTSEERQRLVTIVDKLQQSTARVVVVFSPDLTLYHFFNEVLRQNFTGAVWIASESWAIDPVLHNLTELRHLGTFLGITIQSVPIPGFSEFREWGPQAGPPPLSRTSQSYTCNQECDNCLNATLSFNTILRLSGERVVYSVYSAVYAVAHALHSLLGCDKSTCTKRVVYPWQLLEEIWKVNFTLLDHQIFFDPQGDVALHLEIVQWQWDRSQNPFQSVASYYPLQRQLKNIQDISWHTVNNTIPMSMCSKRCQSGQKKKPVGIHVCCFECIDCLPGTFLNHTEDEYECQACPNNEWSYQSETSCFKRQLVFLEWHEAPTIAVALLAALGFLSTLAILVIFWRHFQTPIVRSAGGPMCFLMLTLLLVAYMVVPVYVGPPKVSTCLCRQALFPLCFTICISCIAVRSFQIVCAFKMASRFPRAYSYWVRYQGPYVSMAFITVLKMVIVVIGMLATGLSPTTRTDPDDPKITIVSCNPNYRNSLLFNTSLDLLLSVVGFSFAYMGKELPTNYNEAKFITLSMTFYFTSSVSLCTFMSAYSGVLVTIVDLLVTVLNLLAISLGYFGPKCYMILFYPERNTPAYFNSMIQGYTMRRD
Sequence (Q7RTX0 21-852): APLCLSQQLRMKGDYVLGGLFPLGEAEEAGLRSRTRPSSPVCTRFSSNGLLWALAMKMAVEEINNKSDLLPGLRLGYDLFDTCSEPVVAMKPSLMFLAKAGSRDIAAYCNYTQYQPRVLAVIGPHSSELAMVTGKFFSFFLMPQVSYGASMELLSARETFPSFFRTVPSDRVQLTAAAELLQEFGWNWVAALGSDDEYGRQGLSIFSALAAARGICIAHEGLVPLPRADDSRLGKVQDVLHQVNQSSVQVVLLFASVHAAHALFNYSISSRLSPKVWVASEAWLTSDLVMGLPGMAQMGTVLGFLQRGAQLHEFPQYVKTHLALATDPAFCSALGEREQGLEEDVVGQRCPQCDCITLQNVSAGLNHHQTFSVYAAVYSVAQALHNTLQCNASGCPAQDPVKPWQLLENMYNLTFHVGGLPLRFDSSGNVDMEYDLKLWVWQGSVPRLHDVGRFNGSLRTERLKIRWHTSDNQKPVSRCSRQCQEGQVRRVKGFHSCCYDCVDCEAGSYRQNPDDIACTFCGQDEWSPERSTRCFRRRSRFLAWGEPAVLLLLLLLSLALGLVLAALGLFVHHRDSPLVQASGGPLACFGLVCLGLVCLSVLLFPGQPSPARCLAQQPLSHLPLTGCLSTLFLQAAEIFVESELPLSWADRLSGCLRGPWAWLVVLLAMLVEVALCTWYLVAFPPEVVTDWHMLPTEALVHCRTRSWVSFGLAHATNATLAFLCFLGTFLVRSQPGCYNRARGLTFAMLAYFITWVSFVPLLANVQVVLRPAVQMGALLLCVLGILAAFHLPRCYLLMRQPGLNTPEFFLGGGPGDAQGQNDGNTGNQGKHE
Assay: Calcium mobilisation assay, TAS1R2 variant I486V with TAS1R3-WT
Assay type: cell-based
Conditions: maximal signal amplitude
OBSERVED PROPERTY: Max ΔF/F0

COMPOUND	ASSAY SYSTEM	Max ΔF/F0
CC1=CC(=O)NS(=O)(=O)O1	human TAS1R2-I486V/TAS1R3-WT (Homo sapiens, UniProt Q7RTX0+Q8TE23, I486V)	0.46
C=C(C)[C@@H]1CC=C(/C=N/O)CC1	human TAS1R2-I486V/TAS1R3-WT (Homo sapiens, UniProt Q7RTX0+Q8TE23, I486V)	1.49
C=C1C[C@@]23CC[C@H]4[C@@](C)(CCC[C@@]4(C)C(=O)O[C@@H]4O[C@H](CO)[C@@H](O)[C@H](O[C@@H]5O[C@H](CO)[C@@H](O)[C@H](O)[C@H]5O)[C@H]4O[C@@H]4O[C@H](CO)[C@@H](O)[C@H](O)[C@H]4O)[C@@H]2CC[C@]1(O[C@@H]1O[C@H](CO)[C@@H](O)[C@H](O[C@@H]2O[C@H](CO)[C@@H](O)[C@H](O)[C@H]2O)[C@H]1O[C@@H]1O[C@H](CO)[C@@H](O)[C@H](O)[C@H]1O)C3 [Rebaudioside M, rebaudioside M]	human TAS1R2-I486V/TAS1R3-WT (Homo sapiens, UniProt Q7RTX0+Q8TE23, I486V)	1.20

A = COC(=O)[C@H](Cc1ccccc1)NC(=O)[C@H](CC(=O)O)NCCC(C)(C)C
B = COc1ccc(CCC(=O)c2c(O)cc(O[C@@H]3O[C@H](CO)[C@@H](O)[C@H](O)[C@H]3O[C@@H]3O[C@@H](C)[C@H](O)[C@@H](O)[C@H]3O)cc2O)cc1O [NHDC, neohesperidin dihydrochalcone]
Field: entry with larger Max ΔF/F0 (options A / B ). Return value: the label identifying the chosen record. B
